Target: T1, Tbx6-DBD (T-domain) (mouse, UniProt P70327 90-277)
T1 sequence: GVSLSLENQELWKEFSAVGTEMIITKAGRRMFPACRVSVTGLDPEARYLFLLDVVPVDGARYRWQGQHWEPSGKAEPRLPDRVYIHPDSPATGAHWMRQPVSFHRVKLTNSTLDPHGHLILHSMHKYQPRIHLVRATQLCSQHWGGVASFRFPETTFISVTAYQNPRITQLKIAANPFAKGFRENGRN
Experiment: quantitative EMSA; Hill coefficient 3.18; 25 mM HEPES pH 7.4, 75 mM NaCl, 1 mM DTT, 0.25 mM EDTA, 0.1% NP-40, 1 mM MgCl2, 10% glycerol, 10 µg/ml BSA, 0.1 mg/ml poly dI-dC; room temperature, 20 min (1 h)
Details: protein: recombinant; tags: N-terminal His (pET151/D-TOPO); Methods: removed by TEV; label: 32P 5' end label; blunt (annealed; only one strand given)
metric: pKd
Would you please state pKd, meaning minus log10 of the concentration in mol/L, as a bare number?

Name the reported pKd value associated with the binder Dll1 BS2 (dsDNA) DNA 1: TCCCGAGGTGTGATTCTTGGA DNA 2: TCCAAGAATCACACCTCGGGA
5.89
